Item-by-item account of pIC50
Molecular target: human CGT (ceramide galactosyltransferase), CHO/CGT lysate (Homo sapiens)
Construct: Full-length human CGT cDNA was cloned into the BamH1/Xho1 site of pcDNA3.1 (+); expressed in transfected cells; host or cells: Chinese hamster ovary (CHO) cells; lysate prepared with M-PER
Sequence (Q16880 21-541): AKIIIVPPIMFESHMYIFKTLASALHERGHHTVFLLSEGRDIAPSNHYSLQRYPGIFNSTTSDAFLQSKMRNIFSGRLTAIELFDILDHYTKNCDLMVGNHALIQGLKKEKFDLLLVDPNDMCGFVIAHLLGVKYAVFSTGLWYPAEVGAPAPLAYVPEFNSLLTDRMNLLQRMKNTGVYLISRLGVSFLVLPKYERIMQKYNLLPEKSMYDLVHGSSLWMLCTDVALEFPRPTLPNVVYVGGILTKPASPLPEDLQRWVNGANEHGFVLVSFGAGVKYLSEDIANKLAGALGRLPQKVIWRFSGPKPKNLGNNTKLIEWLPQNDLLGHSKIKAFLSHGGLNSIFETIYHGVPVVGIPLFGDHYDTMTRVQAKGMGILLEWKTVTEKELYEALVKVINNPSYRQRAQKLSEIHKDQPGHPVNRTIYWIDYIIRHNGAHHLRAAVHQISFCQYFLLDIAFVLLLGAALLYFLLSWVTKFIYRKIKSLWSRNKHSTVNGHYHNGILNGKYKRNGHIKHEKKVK
Assay: CGT enzyme assay, RapidFire/MS/MS readout (Table 1 ranges with one asterisk *)
Type: biochemical
Conditions: RapidFire method (range with one asterisk *)
pIC50: −log10 of the molar value. Structures can show the parent of a compound that is named as a salt.

Known results for compounds:
N[C@H]1CCN(C(=O)[C@H](NS(=O)(=O)c2ccc3cc(OC4CCCC4)ccc3c2)C(F)(F)c2ccc(Br)cc2)C1 : 4.52 to 5.00
NC1CC2CCC(C1)N2C(=O)[C@@H](NS(=O)(=O)c1ccc(OCC2CCCC2)cc1)C(F)(F)c1ccc(C(F)(F)F)cc1 (stereo partly drawn) : 5.00 to 6.00
NC1CCN(C(=O)[C@@H](NS(=O)(=O)c2ccc3cc(OC4CCCC4)ccc3c2)C(F)(F)c2ccc(C(F)(F)F)cc2)CC1 : > 6.00
NC1CCN(C(=O)[C@@H](NS(=O)(=O)c2ccc3cc(OC4CCCC4)ccc3c2)C(F)(F)c2ccc(Oc3ccccc3)cc2)CC1 : > 6.00
COc1cc(C(F)(F)[C@@H](NS(=O)(=O)c2ccc3cc(OC4CCCC4)ccc3c2)C(=O)N2CCC(N)CC2)ccc1Cl : 5.00 to 6.00

pIC50 for CN([C@@H](C(=O)N1C2CCC1CC(N)C2)C(F)(F)c1ccc(Br)cc1)S(=O)(=O)c1ccc2nn(CC3CCCC3)cc2c1 (stereo partly drawn) ? 4.00 to 4.52

Look up pIC50: NC1CCN(C(=O)[C@@H](NS(=O)(=O)c2ccc3cc(OC4CCCC4)ccc3c2)C(F)(F)c2ccc(-c3ccc(Cl)cc3)cc2)CC1 [Compound 91-1, trifluoroacetate] > 6.00

====

This listing pairs molecules with measured IC50.
molecular target: human CGT (ceramide galactosyltransferase), CHO/CGT lysate (Homo sapiens, UniProt Q16880); construct: Full-length human CGT cDNA was cloned into the BamH1/Xho1 site of pcDNA3.1 (+); expressed in transfected cells; host or cells: Chinese hamster ovary (CHO) cells; lysate prepared with M-PER; assay: CGT enzyme assay, RapidFire/MS/MS readout (Table 1 ranges with one asterisk *); format: biochemical; conditions: RapidFire method (range with one asterisk *)
Counter-ions that a name gives are not always drawn.

Some molecules with known IC50 results, for comparison:
NC1CC2CCC(C1)N2C(=O)[C@@H](NS(=O)(=O)c1ccc2nn(CC3CCCC3)cc2c1)C(F)(F)c1ccc(Br)cc1 (stereo partly drawn) : 1 to 10 µM
NC1CCN(C(=O)[C@@H](NS(=O)(=O)c2ccc(OCC3CCCCC3)cc2)C(F)(F)c2ccc(Oc3ccccc3)cc2)CC1 [Compound 63-1, trifluoroacetate] : 1 to 10 µM
NC1CCN(C(=O)[C@H](NS(=O)(=O)c2ccc3cc(OC4CCCC4)ccc3c2)C(F)(F)c2ccc(Oc3ccccc3)cc2)CC1 : < 1 µM
NC1CCN(C(=O)[C@H](NS(=O)(=O)c2ccc3cc(OC4CCCC4)ccc3c2)C(F)(F)c2ccc(Br)cc2)CC1 [Compound 32-2, trifluoroacetate] : 10 to 30 µM
CCCCOc1cccc(C(F)(F)[C@H](NS(=O)(=O)c2ccc3cc(OC4CCCC4)ccc3c2)C(=O)N2C3CCC2CC(N)C3)c1 (stereo partly drawn) [Compound 90-1, trifluoroacetate] : < 1 µM

Entry NC1CC2CCC(C1)N2C(=O)[C@H](NS(=O)(=O)c1ccc2cc(OC3CCCC3)ccc2c1)C(F)(F)c1ccc(-c2ccc(Cl)cc2)cc1 (stereo partly drawn) [Compound 48-2, trifluoroacetate] : reported IC50 = ? 1 to 10 µM

Item under review: CN([C@@H](C(=O)N1C2CCC1CC(N)C2)C(F)(F)c1ccc(-c2ccccc2)cc1)S(=O)(=O)c1ccc2cc(OC3CCCC3)ccc2c1 (stereo partly drawn) . Reported IC50? 10 to 30 µM

Look up IC50: COc1cc(C(F)(F)[C@H](NS(=O)(=O)c2ccc3cc(OC4CCCC4)ccc3c2)C(=O)N2C3CCC2CC(N)C3)ccc1Cl (stereo partly drawn) < 1 µM

What does the data say about its IC50? Entry: NC1CCN(C(=O)[C@@H](NS(=O)(=O)c2ccc3cc(OC4CCCC4)ccc3c2)C(F)(F)c2ccc(Cl)cc2)CC1 1 to 10 µM

Value lookup for IC50; key = NC1CC2CCC(C1)N2C(=O)[C@H](NS(=O)(=O)c1ccc2cc(OC3CCCC3)ccc2c1)C(F)(F)c1ccc(Oc2ccc(Cl)cc2)cc1 (stereo partly drawn) 1 to 10 µM

// lookup IC50 for NC1CC2CCC(C1)N2C(=O)[C@@H](NS(=O)(=O)c1ccc2c(cnn2CC2CCCC2)c1)C(F)(F)c1ccc(Cl)cc1 (stereo partly drawn) 1 to 10 µM

Give the measured IC50 of CC(C)Oc1ccc2cc(S(=O)(=O)N(C)[C@H](C(=O)N3C4CCC3CC(N)C4)C(F)(F)c3ccc(Br)cc3)ccc2c1 (stereo partly drawn) [Compound 46-1, trifluoroacetate] . 1 to 10 µM

====

Reported IC50 values are given for each entry in this list.
Target: human CGT (ceramide galactosyltransferase), CHO/CGT lysate (Homo sapiens)
Construct: Full-length human CGT cDNA was cloned into the BamH1/Xho1 site of pcDNA3.1 (+); expressed in transfected cells; host or cells: Chinese hamster ovary (CHO) cells; lysate prepared with M-PER
Test: CGT enzyme assay, LC-MS/MS readout (Table 1 ranges without asterisk)
Format: biochemical
Settings: LC-MS/MS method (range without asterisk)
Protocol: Full-length human CGT cDNA was cloned into the BamH1/Xho1 site of pcDNA3.1 (+) mammalian expression vector (V90-20, Invitrogen, Carlsbad, Calif.) and the plasmid was transfected into Chinese hamster ovary (CHO) cells. […] Protein concentration was determined using a Pierce BCA protein assay kit (ThermoFisher Scientific). […]
Structures can show the parent of a compound that is named as a salt.

Record excerpt, results attached:
CC(C)Oc1ccc2cc(S(=O)(=O)N[C@@H](C(=O)N3CCC(N)CC3)C(F)(F)c3ccc(Br)cc3)ccc2c1 [Compound 27-2, trifluoroacetate] : 10 to 30 µM
CC(C)Oc1ccc2cc(CCS(=O)(=O)NC(C(=O)N3C4CCC3CC(N)C4)C(F)(F)c3ccc(Br)cc3)ccc2c1 (stereo not shown) [Compound 4, trifluoroacetate] : 10 to 30 µM
CC(C)Oc1ccc2cc(C(=O)C(=O)N[C@@H](C(=O)N3C4CCC3CC(N)C4)C(F)(F)c3ccc(Br)cc3)ccc2c1 (stereo partly shown) [Compound 9-2, trifluoroacetate] : 30 to 100 µM

// moving on: another record for IC50
What measured IC50 is associated with CC(C)c1ccc2cc(S(=O)(=O)N[C@H](C(=O)N3C4CCC3CC(N)C4)C(F)(F)c3ccc(Br)cc3)ccc2c1 (stereo partly shown) [Compound 16-1, trifluoroacetate] on human CGT (ceramide galactosyltransferase), CHO/CGT lysate (Homo sapiens)? 1 to 10 µM

====

Recorded measurements of pIC50, one per entry
biological target: human CGT (ceramide galactosyltransferase), CHO/CGT lysate (Homo sapiens, UniProt Q16880); construct: Full-length human CGT cDNA was cloned into the BamH1/Xho1 site of pcDNA3.1 (+); expressed in transfected cells; host or cells: Chinese hamster ovary (CHO) cells; lysate prepared with M-PER; test: CGT enzyme assay, RapidFire/MS/MS readout (Table 1 ranges with one asterisk *); type: biochemical; conditions: RapidFire method (range with one asterisk *)
pIC50: −log10 of the molar value. Structures can show the parent of a compound that is named as a salt.

NC1CC2CCC(C1)N2C(=O)[C@H](NS(=O)(=O)c1ccc2cc(OC3CCCC3)ccc2c1)C(F)(F)c1ccc(Cl)s1 (stereo partly drawn) [Compound 130-2] : 4.52 to 5.00
NC1CC2CCC(C1)N2C(=O)[C@H](NS(=O)(=O)c1ccc2cc(OC3CCCC3)ccc2c1)C(F)(F)c1cccc(-c2ccccc2)c1 (stereo partly drawn) [Compound 66-2] : 5.00 to 6.00
N[C@@H]1CCN(C(=O)[C@@H](NS(=O)(=O)c2ccc3cc(OC4CCCC4)ccc3c2)C(F)(F)c2ccc(Br)cc2)C1 [Compound 139-1] : > 6.00
NC1CCN(C(=O)[C@H](NS(=O)(=O)c2ccc3c(cnn3CC3CCCC3)c2)C(F)(F)c2ccc(-c3ccc(Cl)cc3)cc2)CC1 [Compound 95-2] : 4.52 to 5.00
CN([C@H](C(=O)N1C2CCC1CC(N)C2)C(F)(F)c1ccc(Oc2ccccc2)cc1)S(=O)(=O)c1ccc(OCC2CCCCC2)cc1 (stereo partly drawn) [Compound 85-1, trifluoroacetate] : 5.00 to 6.00
CN([C@@H](C(=O)N1C2CCC1CC(N)C2)C(F)(F)c1cccc(Oc2ccccc2)c1)S(=O)(=O)c1ccc2cc(OC3CCCC3)ccc2c1 (stereo partly drawn) [Compound 111-2, trifluoroacetate] : 4.52 to 5.00

Given the entry CN([C@H](C(=O)N1C2CCC1CC(N)C2)C(F)(F)c1ccc(-c2ccccc2)cc1)S(=O)(=O)c1ccc2cc(OC3CCCC3)ccc2c1 (stereo partly drawn) [Compound 49-1] , report its measured pIC50. 5.00 to 6.00

Item under review: CN([C@H](C(=O)N1C2CCC1CC(N)C2)C(F)(F)c1ccc(Br)cc1)S(=O)(=O)c1ccc2cc(OC3CCCC3)ccc2c1 (stereo partly drawn) [Compound 34-1, trifluoroacetate] . Reported pIC50? > 6.00

Please look up its pIC50: NC1CC2CCC(C1)N2C(=O)[C@H](NS(=O)(=O)c1ccc(OCC2CCCCC2)cc1)C(F)(F)c1cccc(-c2ccccc2)c1 (stereo partly drawn) [Compound 70-2] 5.00 to 6.00

# query: pIC50 of entry N[C@H]1CCCN(C(=O)[C@H](NS(=O)(=O)c2ccc3cc(OC4CCCC4)ccc3c2)C(F)(F)c2ccc(Br)cc2)C1 [Compound 132-2, trifluoroacetate] 4.52 to 5.00

Which pIC50 value is on record for NC1CC2CCC(C1)N2C(=O)[C@@H](NS(=O)(=O)c1ccc2c(cnn2CC2CCCC2)c1)C(F)(F)c1ccc(C(F)(F)F)cc1 (stereo partly drawn) [Compound 92-1] ? > 6.00

Need pIC50 of COc1ccc(C(F)(F)[C@@H](NS(=O)(=O)c2ccc3cc(OC4CCCC4)ccc3c2)C(=O)N2C3CCC2CC(N)C3)cc1 (stereo partly drawn) [Compound 45-2] , thanks. 5.00 to 6.00
